// values below are reported microsomal CLint
- ASSAY_COMMENT: in vitro
- CONDITION_DESCRIPTION: human, liver microsomes
Reply numerically in µL/min/mg, unit not repeated.

Below, each entry is followed by its recorded microsomal CLint result.
CN1CC/C=C/[C@H](OCCN2CCOCC2)[C@@H]2CC[C@H]2CN2C[C@@]3(CCCc4cc(Cl)ccc43)COc3ccc(cc32)[C@@](O)(C(=O)NS(=O)(=O)N(C)C)CC1=O 21
CN(C)C(=O)CO[C@H]1/C=C/CCN(C)C(=O)C[C@](O)(C(=O)NS(=O)(=O)N(C)C)c2ccc3c(c2)N(C[C@@H]2CC[C@H]21)C[C@@]1(CCCc2cc(Cl)ccc21)CO3 19

Exercise: Recorded microsomal CLint for CN1CC/C=C/[C@H](OCCN2CCC(F)(F)CC2)[C@@H]2CC[C@H]2CN2C[C@@]3(CCCc4cc(Cl)ccc43)COc3ccc(cc32)[C@@](O)(C(=O)NS(=O)(=O)N(C)C)CC1=O , please?
Key: 43
